target: Epidermal growth factor receptor (Homo sapiens, UniProt P00533); experiment: WT-EGFR Kinase Assay
Sequence (P00533 whole entry): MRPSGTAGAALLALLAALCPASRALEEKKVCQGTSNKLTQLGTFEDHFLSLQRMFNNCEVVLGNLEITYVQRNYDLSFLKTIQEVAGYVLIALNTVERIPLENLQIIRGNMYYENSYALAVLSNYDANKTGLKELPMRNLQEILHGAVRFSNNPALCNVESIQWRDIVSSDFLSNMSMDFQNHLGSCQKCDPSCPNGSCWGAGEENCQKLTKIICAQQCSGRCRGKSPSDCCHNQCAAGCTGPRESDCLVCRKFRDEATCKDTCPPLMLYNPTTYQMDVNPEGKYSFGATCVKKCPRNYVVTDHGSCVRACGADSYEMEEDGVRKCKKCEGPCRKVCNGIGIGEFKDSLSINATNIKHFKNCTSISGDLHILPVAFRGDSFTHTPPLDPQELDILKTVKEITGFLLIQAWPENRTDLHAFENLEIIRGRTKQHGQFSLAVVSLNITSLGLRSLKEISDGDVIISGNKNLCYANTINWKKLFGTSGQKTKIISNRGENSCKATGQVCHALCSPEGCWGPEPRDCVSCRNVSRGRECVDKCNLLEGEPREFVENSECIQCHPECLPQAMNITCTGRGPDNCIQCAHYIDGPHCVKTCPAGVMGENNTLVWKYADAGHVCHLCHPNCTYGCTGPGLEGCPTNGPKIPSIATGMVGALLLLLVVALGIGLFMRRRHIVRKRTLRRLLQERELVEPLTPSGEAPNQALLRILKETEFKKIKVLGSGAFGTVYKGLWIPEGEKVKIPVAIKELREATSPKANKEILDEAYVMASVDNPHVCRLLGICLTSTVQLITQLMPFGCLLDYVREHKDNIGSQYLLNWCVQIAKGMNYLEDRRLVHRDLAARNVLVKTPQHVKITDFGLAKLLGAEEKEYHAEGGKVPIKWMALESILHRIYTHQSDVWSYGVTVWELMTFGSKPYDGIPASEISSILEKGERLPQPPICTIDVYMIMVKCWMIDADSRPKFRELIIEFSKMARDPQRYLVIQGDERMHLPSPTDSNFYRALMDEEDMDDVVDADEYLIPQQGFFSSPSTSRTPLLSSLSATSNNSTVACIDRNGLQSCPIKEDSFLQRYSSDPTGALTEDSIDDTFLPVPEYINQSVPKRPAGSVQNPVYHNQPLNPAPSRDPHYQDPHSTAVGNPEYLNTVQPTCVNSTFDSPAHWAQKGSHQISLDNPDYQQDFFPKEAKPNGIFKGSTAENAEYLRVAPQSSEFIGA
REPORTED PROPERTY: IC50

1. CN1CCc2[nH]c(-c3ccnc(NC(=O)C4CC4)c3)c(Nc3ccccc3)c2C1=O    42.6 nM
2. CN1CCc2[nH]c(-c3ccnc(NC(=O)[C@H]4C[C@H]4F)c3)c(Nc3ccccc3)c2C1=O (relative stereo; form 1)    85.5 nM
3. O=c1[nH]ccc2[nH]c(-c3ccncc3F)c(Nc3ccccc3)c12    303 nM
4. CN1CCc2[nH]c(-c3ccnc(NC(=O)[C@H]4C[C@H]4F)c3)c(Nc3ccccc3)c2C1=O (relative stereo; form 2)    321 nM
5. Cn1ccc2[nH]c(-c3ccnc(NC(=O)Cc4ccc(F)cc4)c3)c(-c3ccccc3)c2c1=O    > 20000 nM

Each recorded value in this set is attributed to BindingDB's records for patent US20230322767.
